- target.of.assay: NMDAR ion channel
- method.summary: Competition binding assay against [3H]MK-801 in rat forebrain membranes
- applied.conditions: against 5 nM [3H]MK-801; mean±SEM of 2-6 independent determinations, each in triplicate
reported.metric: Ki (nM)
The reply should contain only the number, in nM.

For the molecule COc1cccc(N(C)C(=N)Nc2cc(SC)ccc2Cl)c1 [compound 14, reference compound] , what Ki is on record?
21.7

For the molecule CSc1ccc(Cl)c(NC(=N)Nc2cccc(OC(F)F)c2)c1 , what Ki is on record?
147

For the molecule CSc1ccc(Cl)c(NC(=N)N(C)c2cccc(OC(F)(F)C(F)F)c2)c1 , what Ki is on record?
56.7

For the molecule CSc1ccc(Cl)c(NC(=N)Nc2cccc(OC(F)(F)F)c2)c1 , what Ki is on record?
235

For the molecule CSc1ccc(Cl)c(NC(=N)N(C)c2cccc(O)c2)c1 , what Ki is on record?
551

For the molecule CSc1ccc(Cl)c(NC(=N)N(C)c2cccc(OCCCF)c2)c1 , what Ki is on record?
179

For the molecule CSc1ccc(Cl)c(NC(=N)N(C)c2cccc(OC(F)(F)F)c2)c1 , what Ki is on record?
12

For the molecule CSc1ccc(Cl)c(NC(=N)N(C)c2cccc(OC(F)F)c2)c1 , what Ki is on record?
10
